Origin of values: PubChem BioAssay

- procedure-summary: sensitizers of A549 cells to miR-34 induction, primary screen, imaging, A549 dox-inducible miR-34, nuclei and caspase counts (AID 1347080); further: test concentration not given here
- run-parameters: A549 miR-34 inducible, Hoechst nuclei count, 48 h; measured here: total cells without miR-34 induction
Tag: 1 if measured cell count is not below 9000, 0 if it is.

Query string: Kindly determine if cell count recorded for C#C[C@]1(O)CCC2C3CCc4cc(OC5CCCC5)ccc4C3CC[C@@]21C (stereo partly drawn) is above or exactly 9000.
Result string: 0

Query string: Kindly determine if cell count recorded for OC[C@@H](O)[C@@H](O)[C@H](O)[C@@H](O)CO is above or exactly 9000.
Result string: 1

Query string: Kindly determine if cell count recorded for CCN1CCN(C(=O)NC(C(=O)NC2C(=O)N3C(C(=O)O)=C(CSc4nnnn4C)CSC23)c2ccc(O)cc2)C(=O)C1=O (stereo not drawn) is above or exactly 9000.
Result string: 1

Query string: Kindly determine if cell count recorded for CCCCS(=N)(=O)CCC(N)C(=O)O (stereo not drawn) is above or exactly 9000.
Result string: 1

Query string: Kindly determine if cell count recorded for Cc1ccc(/C=N/NC(=O)c2ccccc2Oc2ccccc2)o1 is above or exactly 9000.
Result string: 0

Query string: Kindly determine if cell count recorded for CC(C)Nc1ncccn1 is above or exactly 9000.
Result string: 1

Query string: Kindly determine if cell count recorded for Fc1ccc(Cl)cc1-c1nc(Nc2ccncc2)c2nccnc2n1 is above or exactly 9000.
Result string: 1

Query string: Kindly determine if cell count recorded for Cc1nccnc1N1CCCCC1 is above or exactly 9000.
Result string: 1

Query string: Kindly determine if cell count recorded for COc1cc([C@@H]2c3cc4c(cc3C(O[C@@H]3O[C@@H]5CO[C@@H](c6cccs6)OC5[C@H](O)[C@H]3O)C3COC(=O)[C@@H]32)OCO4)cc(OC)c1O (stereo partly drawn) is above or exactly 9000.
Result string: 0

Query string: Kindly determine if cell count recorded for NC(Cc1c[nH]c2ccccc12)C(=O)O (stereo not drawn) is above or exactly 9000.
Result string: 1

Query string: Kindly determine if cell count recorded for CCC(=O)Oc1ccc2c(c1)CCC1C2CC[C@@]2(C)C1CC[C@@H]2OC(=O)CC (stereo partly drawn) is above or exactly 9000.
Result string: 0
